Hey, just so you know, these numbers are from patent US4771050A.

Tested on: sorbitol accumulation in sciatic nerves of streptozocin diabetic rats
Protocol Description: Inhibition of sorbitol accumulation in the tissue of experimentally induced diabetic rat
Format: in vivo, rat (Spraque-Dawley)
Conditions: 30 mg/kg orally twice a day for 2 days; sciatic nerve; untreated control group = 100
Overview of recorded sorbitol accumulation for various compounds
Provide the reading as a plain figure in %.

Check out these entries, answers already filled in.
CCc1cccc2c1OC(C(C)C)C(=S)N2CC(=O)O (stereo not shown) ... 35
O=C(O)CN1C(=S)COc2ccc(F)cc21 [Control A, reference compound] ... 73
COc1cccc2c1OC(C(C)C)C(=S)N2CC(=O)O (stereo not shown) ... 29
CCC(C)C1Sc2ccccc2N(CC(=O)O)C1=S (stereo not shown) ... 67

Identify measured sorbitol accumulation corresponding to CC(C)C1Oc2ccc(F)cc2N(CC(=O)O)C1=S (stereo not shown)
33

Identify measured sorbitol accumulation corresponding to CCOc1cccc2c1OC(C(C)C)C(=S)N2CC(=O)O (stereo not shown)
58

Identify measured sorbitol accumulation corresponding to CC(C)C1Sc2ccccc2N(CC(=O)O)C1=S (stereo not shown)
60

Identify measured sorbitol accumulation corresponding to CC(C)C1Oc2c(F)cccc2N(CC(=O)O)C1=S (stereo not shown)
45

Identify measured sorbitol accumulation corresponding to COc1ccc2c(c1)OC(C(C)C)C(=S)N2CC(=O)O (stereo not shown)
27

Identify measured sorbitol accumulation corresponding to Cc1cccc2c1OC(C(C)C)C(=S)N2CC(=O)O (stereo not shown)
33

----------
Protocol Description: Acute toxicity in rats (oral)
Parameters: species or system rat (Wistar)
Conditions: in vivo, rat, mortality during 14 days
Endpoint Name: LD50 at 336 h (mg/kg)
Provide the reading as a plain figure in mg/kg.

Identify measured LD50 at 336 h corresponding to CC(C)c1cccc2c1OC(C(C)C)C(=S)N2CC(=O)O (stereo not shown)
2830

----------
System Under Test: aldose reductase from human placenta (Homo sapiens, UniProt P15121)
Construct: Partially purified aldose reductase from human placenta; from tissue; host or cells: human placenta
Protocol Description: Aldose reductase inhibition (in vitro study)
Format: biochemical
Conditions: 10^-7 M
Endpoint Name: inhibition at 0.1 µM (%)
Provide the reading as a plain figure in %.

CC(C)C1Sc2ccccc2N(CC(=O)O)C1=S (stereo not drawn) ... 20

Write down the reported inhibition at 0.1 µM (system: aldose reductase from human placenta (Homo sapiens, UniProt P15121)) of CC(C)C1Oc2c(cccc2C(C)(C)C)N(CC(=O)O)C1=S (stereo not drawn)
8

Write down the reported inhibition at 0.1 µM (system: aldose reductase from human placenta (Homo sapiens, UniProt P15121)) of CC1Sc2ccccc2N(CC(=O)O)C1=S (stereo not drawn) [Control C, reference compound]
19.6

Write down the reported inhibition at 0.1 µM (system: aldose reductase from human placenta (Homo sapiens, UniProt P15121)) of CCC(C)C1Sc2ccccc2N(CC(=O)O)C1=S (stereo not drawn)
15.2

----------
System Under Test: aldose reductase from human placenta (Homo sapiens)
Construct: Partially purified aldose reductase from human placenta; from tissue; host or cells: human placenta
Protocol Description: Aldose reductase inhibition (in vitro study)
Format: biochemical
Conditions: 10^-6 M
Endpoint Name: inhibition at 1 µM
Record the result as number plus unit.

Check out these entries, answers already filled in.
COc1cccc2c1OC(C(C)C)C(=S)N2CC(=O)O (stereo not drawn) ... 48.1%
CC(C)C1Sc2ccccc2N(CC(=O)O)C1=S (stereo not drawn) ... 46.4%
CC1Sc2ccccc2N(CC(=O)O)C1=S (stereo not drawn) [Control C, reference compound] ... 48.7%

Identify measured inhibition at 1 µM corresponding to COc1ccc2c(c1)OC(C(C)C)C(=S)N2CC(=O)O (stereo not drawn)
50%

Identify measured inhibition at 1 µM corresponding to CCc1cccc2c1OC(C(C)C)C(=S)N2CC(=O)O (stereo not drawn)
46.8%
